- applied_conditions: 313.15 K; 100 kPa; Liquid; Concentric cylinders viscometry
property_measured: viscosity (mPa·s)
Answer with a number only, understood to be in mPa·s.

[[record]]
compound = "CCCC(C)O (centres undefined) [pentan-2-ol]"
measured_number = 2.04

[[record]]
compound = "CCC(C)O (centres undefined) [butan-2-ol]"
measured_number = 1.8

[[record]]
compound = "CC(C)O [propan-2-ol]"
measured_number = 1.36


// below: viscosity requested for another compound
Q: Endpoint output: viscosity of Nc1ccccc1 [aniline] . Value?
Ans: 2.43

* * *

- applied_conditions: 323.15 K; 100 kPa; Liquid; Vibrating tube method
Numbers after ± are expanded uncertainties.
Here the recorded mass density is given for each entry.
Express your answer as a number followed by its unit.

Previously resolved entries follow.
[[record]]
compound = "CCC(C)O (centres undefined)"
property_measured = "mass density"
result = "780.6 ± 0.2 kg/m3"

[[record]]
compound = "CCCC(C)O (centres undefined)"
property_measured = "mass density"
result = "784 ± 0.2 kg/m3"

[[record]]
compound = "Nc1ccccc1"
property_measured = "mass density"
result = "995.5 ± 0.3 kg/m3"


Now examine the next entry.
Q: I have this compound here, CC(C)O , and I need its recorded mass density.
Ans: 758.8 ± 0.2 kg/m3
